measurement-target: Acetylcholinesterase (Homo sapiens, UniProt P22303)
Sequence (P22303 whole entry): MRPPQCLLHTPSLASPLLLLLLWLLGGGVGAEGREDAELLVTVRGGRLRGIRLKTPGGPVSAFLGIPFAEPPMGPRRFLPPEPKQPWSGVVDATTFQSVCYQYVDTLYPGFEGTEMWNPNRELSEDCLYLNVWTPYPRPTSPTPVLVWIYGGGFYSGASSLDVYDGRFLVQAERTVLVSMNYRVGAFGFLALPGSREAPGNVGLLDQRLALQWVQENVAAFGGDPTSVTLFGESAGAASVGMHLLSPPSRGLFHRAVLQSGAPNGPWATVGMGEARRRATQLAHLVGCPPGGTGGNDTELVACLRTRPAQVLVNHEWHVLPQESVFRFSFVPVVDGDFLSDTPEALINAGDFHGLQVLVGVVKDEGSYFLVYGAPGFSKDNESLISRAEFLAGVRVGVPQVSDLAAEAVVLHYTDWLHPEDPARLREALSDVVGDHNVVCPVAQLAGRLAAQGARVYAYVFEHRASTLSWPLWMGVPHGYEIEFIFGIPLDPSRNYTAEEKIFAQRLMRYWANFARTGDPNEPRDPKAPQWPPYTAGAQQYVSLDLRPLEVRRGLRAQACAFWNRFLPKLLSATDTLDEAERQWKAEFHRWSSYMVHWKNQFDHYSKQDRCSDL
Note to self: use MET only for IC50 readings below 7 µM; a reading exactly at 7 µM still gets NOT MET.

**Query** Does the reported IC50 of the following compound sit strictly below 7 µM? CC1CCc2c(nc3nc(-c4ccccc4)cc(C(F)(F)F)c3c2N)C1 (configuration not stated)
**Result** MET

**Query** What do we get for Nc1cc(-c2cccs2)nc2nc(-c3ccccc3)cc(C(F)(F)F)c12 ?
**Result** NOT MET

###

Recorded viability at 48 h, 1 µM by entry
protocol-summary: in vitro
test-conditions: human, THLE2 cells
Description: Cytotoxicity against Homo sapiens (human) THLE2 cells assessed as viable cells at 1 uM after 48 hr by MTT assay
A number alone suffices; assume %.

> print(dat)
                            chemical.string            property.name  numeric.value
1  Nc1cc(-c2ccccc2Br)nc2nc(-c3ccccc3)cc(C(F)(F)F)c12  viability at 48 h, 1 µM           95.9

**Query** Reported viability at 48 h, 1 µM for Nc1cc(-c2ccc(Cl)cc2)nc2nc(-c3ccccc3)cc(C(F)(F)F)c12 : what is it?
**Result** 98.1

###

measurement-target: Acetylcholinesterase (Homo sapiens)
Recorded log10(IC50) by entry
Values below are the log10 of the recorded IC50, with µM as the unit.

// below: answered compounds
> print(dat)
                                   compound  property.name  numeric.value
1  Nc1c2c(nc3nc(-c4ccccc4)cc(C(F)(F)F)c13)CCCC2    log10(IC50)          -0.46
2  Nc1cc(-c2ccc(Cl)cc2)nc2nc(-c3ccccc3)cc(C(F)(F)F)c12    log10(IC50)          -0.28
3  Nc1c2c(nc3nc(-c4ccccc4)cc(C(F)(F)F)c13)CCCCC2    log10(IC50)           1.00
4  Nc1cc(-c2ccccc2Br)nc2nc(-c3ccccc3)cc(C(F)(F)F)c12    log10(IC50)          -0.05
5  CC1CCc2nc3nc(-c4ccccc4)cc(C(F)(F)F)c3c(N)c2C1 (stereo not given)    log10(IC50)          -0.29
6  Nc1c2c(nc3nc(-c4ccccc4)cc(C(F)(F)F)c13)CCC2    log10(IC50)           0.91
7  CC1Cc2nc3nc(-c4ccccc4)cc(C(F)(F)F)c3c(N)c2C1 (stereo not given)    log10(IC50)           0.97
8  Nc1cc(-c2ccc(F)cc2)nc2nc(-c3ccccc3)cc(C(F)(F)F)c12    log10(IC50)           0.82
9  Nc1c2c(nc3nc(-c4ccccc4)cc(C(F)(F)F)c13)-c1ccccc1C2    log10(IC50)           1.25

**Query** Reported log10(IC50) for COc1ccc(-c2cc(N)c3c(C(F)(F)F)cc(-c4ccccc4)nc3n2)cc1 : what is it?
**Result** 0.92

###

Here's what we have: IC50 numbers for Acetylcholinesterase (Homo sapiens, UniProt P22303).
A number alone suffices; assume µM.

// below: answered compounds
> print(dat)
                            chemical.string  reading.unit  numeric.value
1  CC(C)Cc1cc(N)c2c(C(F)(F)F)cc(-c3ccccc3)nc2n1            µM           19.1
2  Nc1c2c(nc3nc(-c4ccccc4)cc(C(F)(F)F)c13)CCCCCC2            µM           7.69
3  Nc1cc(-c2ccccc2)nc2nc(-c3ccccc3)cc(C(F)(F)F)c12            µM            7.1
4  Nc1cc(-c2cccc(F)c2)nc2nc(-c3ccccc3)cc(C(F)(F)F)c12            µM           7.03

Okay, next one:
**Query** Reported IC50 for Nc1c2c(nc3nc(-c4ccccc4)cc(C(F)(F)F)c13)-c1ccccc1CC2 : what is it?
**Result** 23.1
